# tested target: T1, QCD-32g58 LMW SLP (low-molecular-weight subunit of the QCD-32g58 surface layer protein) (Clostridioides difficile QCD-32g58 …, UniProt A0A9R0BMB3, strain)
# T1 construct: low-molecular-weight (LMW) subunit of the surface layer protein, cut from the precursor SlpA by Cwp84, C. difficile strain QCD-32g58 (ribotype 027); predicted mass 33.9 kDa; also called QCD-32g58 SLP LMW subunit; LMW subunit; source: purified from C. difficile QCD-32g58 (low-pH glycine extraction, minor SEC peak at about 15 ml); in the Western blot the LMW band of the extracted SLPs
# assay name: SPR; Biacore 3000; SEC-purified QCD-32g58 LMW SLP subunit amine-coupled to a CM5 chip; single-concentration screen, 200 nM VHH; 25 °C, 10 mM HEPES pH 7.4, 150 mM NaCl, 3 mM EDTA, 0.005 % P20
# experimental conditions: both partners purified
metric: kon (M⁻¹ s⁻¹)
# value in M⁻¹ s⁻¹; strip the unit string

Check out these entries, answers already filled in.
binder: SLP_VHH50 (VHH, From an immune llama phage display library panned on QCD-32g58 SLP; source: monomeric SEC fractions for SPR; not shown: His6, C-terminal, kept) VHH: QVKLEESGGGLVQPGGSLRLSCAASGFTLDYYTIGWFRQAPGKEREGVACISSDDRTYYVDSVKGRFAISRDNVKNTVYLQMNNLKPEDTAVYYCASKESVFLIATMKGCAPGHDDYWGQGTQVTVSS
kon, M⁻¹ s⁻¹: 190000
//
binder: SLP_VHH22 (VHH, From an immune llama phage display library panned on QCD-32g58 SLP; source: monomeric SEC fractions for SPR; not shown: His6, C-terminal, kept) VHH: QVQLVESGGGLVQPGGSLRLSCAASGFTLDSYAIGWFRQAPGKEHEGISCISSNGGSTYYTDSVKGRFTISRDNAKNTVYLQMNSLESEDSAVYYCATVRRCSSLDMALGALATRTKGYDYWGQGTQVTVSS
kon, M⁻¹ s⁻¹: 130000
//
binder: SLP_VHH5 (VHH, From an immune llama phage display library panned on QCD-32g58 SLP; source: monomeric SEC fractions for SPR; not shown: His6, C-terminal, kept) VHH: QVKLEESGGGLVQAGGSLRLSCAASRLTFSTYHMGWFRQAPGKEREFVAALSWSGGTTYYADSVKGRFGISRDNAKNTVYLQMNSLKPEDTAVYYCASGGVLATMNSDEYDYWGQGTQVTVSS
kon, M⁻¹ s⁻¹: 140000

Attention now shifts to the item below.
# binder SLP_VHH49 (VHH, From an immune llama phage display library panned on QCD-32g58 SLP; source: monomeric SEC fractions for SPR; not shown: His6, C-terminal, kept) VHH: QVKLEESGGGLVQAGGSLRLSCAASEGAFSDALSRHAAGWFRQAPGKEREFVAAISWNGANTDYKNSVNNRFTISRDTSKNTVYLQMNSLKPEDTAVYYCAAKNEPSWISRIYYRGLEYDYWGQGTQVTVSS ; its kon = 590000
